This collection of values is drawn from paper PMC6193035.

Test system: APEC O2-211
EXPERIMENT_SUMMARY: MIC and MBC determination in M63 media
Type: cell-based
CONDITION_NOTES: Escherichia coli; APEC O2-211, M63 media
ASSAY_ENDPOINT: MIC (µM)
// note: answer is a bare numeric in µM

# MIC measured on APEC O2-211 for item "COc1ccc(CCN(Cc2cc3c(cc2Cl)OCO3)CC2CCN(C)CC2)cc1" = 100

I looked up COc1cc(CNCCc2ccc(C)cc2)ccc1OCC(O)CN1CCCC1 (stereo not shown) and its MIC for APEC O2-211 was 100

Entry CC1CCC(C(C)C)C(OC(=O)Cn2c[n+](CC(=O)OC3CC(C)CCC3C(C)C)c3ccccc32)C1 (stereo not shown) , APEC O2-211 data, MIC value: 25

Summary: CC(=O)OC(C(Br)C(=O)c1ccc([N+](=O)[O-])cc1)C(Cl)(Cl)Cl (stereo not shown) , APEC O2-211, MIC = 25

APEC O2-211 data for "CCN1/C(=C/c2ccc3ccccc3[n+]2CC)C=Cc2ccccc21" ; its MIC: 25

For the molecule CC1CCCN(CCC(=O)c2ccc(Br)cc2)C1 (stereo not shown) , the measured MIC on APEC O2-211 was 200

Entry COc1cc(CNCCc2ccc3ccccc3c2)ccc1OCC(O)CN1CCCC1 (stereo not shown) , tested on APEC O2-211, has a reported MIC of 100

---

System: APEC O115
EXPERIMENT_SUMMARY: MIC and MBC determination in M63 media
Type: cell-based
CONDITION_NOTES: Escherichia coli
ASSAY_ENDPOINT: MIC (µM)
Entry rule: numbers only, all in µM.

Measured MIC, "COc1ccc(CCN(Cc2cc3c(cc2Cl)OCO3)CC2CCN(C)CC2)cc1" : 200

Entry CC(=O)OC(C(Br)C(=O)c1ccc([N+](=O)[O-])cc1)C(Cl)(Cl)Cl (stereo not shown) , MIC reported as 25

Form: compound = COc1cc(CNCCc2ccc(C)cc2)ccc1OCC(O)CN1CCCC1 (stereo not shown) ; MIC = 100

Field MIC (entry CC1CCC(C(C)C)C(OC(=O)Cn2c[n+](CC(=O)OC3CC(C)CCC3C(C)C)c3ccccc32)C1 (stereo not shown) ) reads 25

Reported MIC for CC1CCCN(CCC(=O)c2ccc(Br)cc2)C1 (stereo not shown) was 200

// MIC lookup, compound = "CCN1/C(=C/c2ccc3ccccc3[n+]2CC)C=Cc2ccccc21" , result: 25

Reported MIC of COc1cc(CNCCc2ccc3ccccc3c2)ccc1OCC(O)CN1CCCC1 (stereo not shown) : 200

---

Exercise: for every item that follows, state its recorded MBC.
Test system: APEC O15
EXPERIMENT_SUMMARY: MIC and MBC determination in M63 media
Type: cell-based
CONDITION_NOTES: Escherichia coli
Record the value in µM, omitting the unit from your answer.

Form: compound = "CCN1/C(=C/c2ccc3ccccc3[n+]2CC)C=Cc2ccccc21" ; MBC = 100

The compound identified as CC1CCCN(CCC(=O)c2ccc(Br)cc2)C1 (stereo not shown) registered its MBC at 250

What the record says about "COc1ccc(CCN(Cc2cc3c(cc2Cl)OCO3)CC2CCN(C)CC2)cc1" : MBC is 100

Looking up COc1cc(CNCCc2ccc3ccccc3c2)ccc1OCC(O)CN1CCCC1 (stereo not shown) , I found its MBC recorded as 100

Lab note: measured MBC of COc1cc(CNCCc2ccc(C)cc2)ccc1OCC(O)CN1CCCC1 (stereo not shown) was 100

The value of MBC measured for the compound CC1CCC(C(C)C)C(OC(=O)Cn2c[n+](CC(=O)OC3CC(C)CCC3C(C)C)c3ccccc32)C1 (stereo not shown) turned out to be 25

Kindly note the recorded MBC for CC(=O)OC(C(Br)C(=O)c1ccc([N+](=O)[O-])cc1)C(Cl)(Cl)Cl (stereo not shown) , which is 100

---

Provide the reported minimal effective concentration of each item.
Tested on: intracellular APEC O1 in Caco-2 cells
EXPERIMENT_SUMMARY: Intracellular survival assay
Format: cell-based, Escherichia coli
CONDITION_NOTES: Escherichia coli; O1, Caco-2, 6 h treatment; read-out: SMs intracellular APEC clearance concentration
Report only the number, with the unit µM understood.

The compound listed as CC(=O)OC(C(Br)C(=O)c1ccc([N+](=O)[O-])cc1)C(Cl)(Cl)Cl (stereo not shown) has a reported minimal effective concentration of 100

So for "CCN1/C(=C/c2ccc3ccccc3[n+]2CC)C=Cc2ccccc21" , the logged minimal effective concentration turned out to be 100

Entry CC1CCC(C(C)C)C(OC(=O)Cn2c[n+](CC(=O)OC3CC(C)CCC3C(C)C)c3ccccc32)C1 (stereo not shown) , minimal effective concentration reported as 100

---

Tested on: APEC O109
EXPERIMENT_SUMMARY: MIC and MBC determination in M63 media
Type: cell-based
CONDITION_NOTES: Escherichia coli
ASSAY_ENDPOINT: MIC (µM)
Provide only the numeric value, understood in µM.

Per the record, "COc1ccc(CCN(Cc2cc3c(cc2Cl)OCO3)CC2CCN(C)CC2)cc1" has MIC of 200

CC1CCC(C(C)C)C(OC(=O)Cn2c[n+](CC(=O)OC3CC(C)CCC3C(C)C)c3ccccc32)C1 (stereo not shown) has a reported MIC of 25

Reported MIC for COc1cc(CNCCc2ccc(C)cc2)ccc1OCC(O)CN1CCCC1 (stereo not shown) was 100

Documented MIC of "CCN1/C(=C/c2ccc3ccccc3[n+]2CC)C=Cc2ccccc21" : 25

Reported MIC for CC(=O)OC(C(Br)C(=O)c1ccc([N+](=O)[O-])cc1)C(Cl)(Cl)Cl (stereo not shown) was 25

Please fill in: MIC reported for CC1CCCN(CCC(=O)c2ccc(Br)cc2)C1 (stereo not shown) = 200

Input COc1cc(CNCCc2ccc3ccccc3c2)ccc1OCC(O)CN1CCCC1 (stereo not shown) . Output MIC: 100

---

Tested on: intracellular APEC O78 in Caco-2 cells
EXPERIMENT_SUMMARY: Intracellular survival assay
Type: cell-based, Escherichia coli
CONDITION_NOTES: O78, Caco-2
ASSAY_ENDPOINT: intracellular APEC clearance concentration as multiple of MIC (superscript)

# annotated cases, reported intracellular APEC clearance concentration as multiple of MIC (superscript) shown
COc1cc(CNCCc2ccc(C)cc2)ccc1OCC(O)CN1CCCC1 (stereo not shown) : a (1X MIC)
CCN1/C(=C/c2ccc3ccccc3[n+]2CC)C=Cc2ccccc21 : b (2X MIC)
CC1CCCN(CCC(=O)c2ccc(Br)cc2)C1 (stereo not shown) : a (1X MIC)
CC1CCC(C(C)C)C(OC(=O)Cn2c[n+](CC(=O)OC3CC(C)CCC3C(C)C)c3ccccc32)C1 (stereo not shown) : b (2X MIC)
COc1cc(CNCCc2ccc3ccccc3c2)ccc1OCC(O)CN1CCCC1 (stereo not shown) : a (1X MIC)

Attention now shifts to the item below.
intracellular APEC clearance concentration as multiple of MIC (superscript) reported for this molecule "COc1ccc(CCN(Cc2cc3c(cc2Cl)OCO3)CC2CCN(C)CC2)cc1" : a (1X MIC)

---

Answer each item with its documented minimal effective concentration.
Test system: intracellular APEC O1 in THP-1 cells
EXPERIMENT_SUMMARY: Intracellular survival assay
Assay type: cell-based, Escherichia coli
CONDITION_NOTES: Escherichia coli; O1, THP-1, 6 h treatment; read-out: SMs intracellular APEC clearance concentration
// note: answer is a bare numeric in µM

The reported value for COc1cc(CNCCc2ccc3ccccc3c2)ccc1OCC(O)CN1CCCC1 (stereo not shown) [SM2] in terms of minimal effective concentration is 200

So, CC1CCCN(CCC(=O)c2ccc(Br)cc2)C1 (stereo not shown) [SM1] ? Its minimal effective concentration was 400

So for CCN1/C(=C/c2ccc3ccccc3[n+]2CC)C=Cc2ccccc21 [SM9] , the logged minimal effective concentration turned out to be 50

// sample COc1cc(CNCCc2ccc(C)cc2)ccc1OCC(O)CN1CCCC1 (stereo not shown) [SM3] , its minimal effective concentration was 200

---

Provide the recorded MBC for the entries that follow.
Test system: APEC O78-53
EXPERIMENT_SUMMARY: MIC and MBC determination in M63 media
Assay type: cell-based
CONDITION_NOTES: Escherichia coli; APEC O78-53, M63 media
The response must be a number in µM with no trailing unit.

What the record says about "CCN1/C(=C/c2ccc3ccccc3[n+]2CC)C=Cc2ccccc21" : MBC is 25

// sample CC(=O)OC(C(Br)C(=O)c1ccc([N+](=O)[O-])cc1)C(Cl)(Cl)Cl (stereo not drawn) , its MBC was 50

Recorded result, "COc1ccc(CCN(Cc2cc3c(cc2Cl)OCO3)CC2CCN(C)CC2)cc1" , MBC: 200
